The measurements presented in this section are drawn from paper PMC10504751.

Property: inhibition at 10 µM; scope: individual compounds
# Test system: CAKI-1
# experimentDescription: NCI one-dose SRB anti-proliferative screen
# Assay type: cell-based
# measurementParameters: Homo sapiens; CAKI-1, Renal cancer; NCI one dose; read-out: Cell growth inhibition %
Your answer should be a plain number; it is taken to be in %.

Recorded inhibition at 10 µM, per entry:
[
  {
    "compound": "O=C(CSc1nnc(-c2ccc3[nH]c(-c4ccccc4)nc3c2)o1)Nc1ccc(C(=O)/C=C/c2ccc(Cl)cc2)cc1 [Compound 7b]",
    "inhibition at 10 µM [%]": 1.52
  },
  {
    "compound": "COc1ccc(-c2nc3cc(-c4nnc(SCC(=O)Nc5ccc(C(=O)/C=C/c6ccc(OC)c(OC)c6)cc5)o4)ccc3[nH]2)cc1 [Compound 7n]",
    "inhibition at 10 µM [%]": 1.11
  },
  {
    "compound": "COc1ccc(/C=C/C(=O)c2ccc(NC(=O)CSc3nnc(-c4ccc5[nH]c(-c6ccccc6)nc5c4)o3)cc2)cc1 [Compound 7c]",
    "inhibition at 10 µM [%]": 0
  },
  {
    "compound": "COc1ccc(-c2nc3cc(-c4nnc(SCC(=O)Nc5ccc(C(=O)/C=C/c6cc(OC)c(OC)c(OC)c6)cc5)o4)ccc3[nH]2)cc1 [Compound 7o]",
    "inhibition at 10 µM [%]": 1.83
  },
  {
    "compound": "COc1ccc(-c2nc3cc(-c4nnc(SCC(=O)Nc5ccc(C(=O)/C=C/c6ccc(Cl)cc6)cc5)o4)ccc3[nH]2)cc1 [Compound 7l]",
    "inhibition at 10 µM [%]": 2.8
  }
]

Could you now look at the following compound, please?
## Input Can you look up the measured inhibition at 10 µM of COc1cc(/C=C/C(=O)c2ccc(NC(=O)CSc3nnc(-c4ccc5[nH]c(-c6ccccc6)nc5c4)o3)cc2)cc(OC)c1OC [Compound 7e] for me?
## Output 0
